// reported pEC50 for each item listed
- tested.target: Trace amine-associated receptor 1 (Homo sapiens) (UniProt Q96RJ0)
- Sequence (Q96RJ0 whole entry, looked up): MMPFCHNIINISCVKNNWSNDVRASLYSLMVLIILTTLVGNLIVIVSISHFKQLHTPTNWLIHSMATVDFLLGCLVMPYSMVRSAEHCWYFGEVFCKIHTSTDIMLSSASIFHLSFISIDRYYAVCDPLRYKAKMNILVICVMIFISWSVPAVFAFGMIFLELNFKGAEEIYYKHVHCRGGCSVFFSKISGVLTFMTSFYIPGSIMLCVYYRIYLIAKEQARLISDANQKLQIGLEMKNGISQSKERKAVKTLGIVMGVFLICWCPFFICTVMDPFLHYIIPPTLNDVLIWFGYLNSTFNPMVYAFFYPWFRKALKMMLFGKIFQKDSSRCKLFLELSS
- assay.info: human TAAR1 agonist potency, dose response, cell-based, fluorescence, late stage (AID 743229)
- condition.summary: TAAR1-expressing cells, fluorescence agonist read-out
pEC50: −log10 of the molar value.

molecule | pEC50
O=C(Nc1cccnc1)Nc1cccc(F)c1 | 5.48
OCCNc1nc(Nc2ccc(O)cc2)nc2ccccc12 | 6.09
O=C(CCN1CCC(c2ccccc2)C1)c1ccc2c(c1)OCCO2 (centres undefined) | 6.58
O=C(Nc1ccccc1)Nc1ccncc1 | 6.09
c1ccc2c3c([nH]c2c1)CCNC3 | 6.53
CCOC(=O)C(NC(=O)CC)(N1CCc2ccccc2C1)C(F)(F)F (centres undefined) | 7.37
Cc1cc(C)n(C(CC(=O)N2CCc3ccccc3C2)C(=O)O)n1 (centres undefined) | 6.77
Nc1nc(Nc2ccccc2)nc2ccccc12 | 6.68
c1ccc(CCn2nnnc2C(c2cccs2)N2CCN(Cc3ccc4c(c3)OCO4)CC2)cc1 (centres undefined) | 6.63
NC(N)=NN=Cc1c(Cl)cccc1Cl | 6.66
Cc1ccc(NC(=O)CCN2CCc3ccccc3C2)cc1 | 5.90
O=C(C(=O)N1CCc2ccccc2C1)c1cn(CC(=O)N2CCCCC2)c2ccccc12 | 6.11
Nc1nc(Nc2cccc(F)c2)nc2ccccc12 | 6.46
CCOC(=O)C(NC(C)=O)(N1CCc2ccccc2C1)C(F)(F)F (centres undefined) | 7.12
c1ccc2c(c1)CCN(c1nc3cc4c(cc3s1)OCO4)C2 | 6.56
Cc1cc(N(C)C)nc(Nc2ccccc2)n1 | 6.74
CC(=NCCc1ccccc1)C1CCOC1=O (centres undefined) | 7.44
OCCNc1nc(Nc2cccc(O)c2)nc2ccccc12 | 6.59
O=C(CCN1CCc2ccccc2CC1)c1ccc2c(c1)OCCO2 | 6.47
O=C(CCN1CCC(c2ccccc2)C1)c1cccs1 (centres undefined) | 6.97
CC1(C)CCCN(C(=O)c2coc(=O)c(Br)c2)C1 | 6.32
O=C(CCCCl)N1CCc2[nH]c3ccccc3c2C1 | 7.00
O=C(Nc1ccncc1)Nc1ccc(F)cc1 | 6.06
COc1cc(C(=O)CCN2CCC(c3ccccc3)C2)cc(OC)c1OC (centres undefined) | 7.07
